TEST SYSTEM: human IP6K1 (Homo sapiens, UniProt Q92551)
Construct: human IP6K1 (1-441) gene; GST; made in house; host or cells: Sf-9 insect cells
Sequence (Q92551 whole entry): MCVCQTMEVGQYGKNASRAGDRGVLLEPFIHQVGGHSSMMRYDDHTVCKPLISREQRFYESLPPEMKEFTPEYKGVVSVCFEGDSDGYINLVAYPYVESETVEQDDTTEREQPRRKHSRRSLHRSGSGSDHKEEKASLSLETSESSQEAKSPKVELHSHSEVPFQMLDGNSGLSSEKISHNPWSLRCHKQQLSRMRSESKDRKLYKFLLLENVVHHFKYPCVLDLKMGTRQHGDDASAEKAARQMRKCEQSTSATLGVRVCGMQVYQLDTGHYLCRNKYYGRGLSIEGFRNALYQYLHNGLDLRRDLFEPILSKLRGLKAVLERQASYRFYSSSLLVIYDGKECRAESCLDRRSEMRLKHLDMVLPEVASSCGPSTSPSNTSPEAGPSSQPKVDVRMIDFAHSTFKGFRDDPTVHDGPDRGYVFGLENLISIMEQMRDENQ
METHOD NOTES: IP6K enzyme inhibitory assay (ADP-Glo Kinase Assay), human IP6K1
Type: biochemical
CONDITIONS USED: compound concentration 0.1 μM; read-out: ADP-Glo method inhibitory rate (%) human IP6K1
ENDPOINT NAME: inhibition at 0.1 µM (%)

Value of measured inhibition at 0.1 µM for the entry `O=C(O)c1ccc2c(c1)[C@]1(CC[C@@H](Oc3ccc(F)c(C(F)(F)F)c3)CC1)C(=O)N2` : 87

Value of measured inhibition at 0.1 µM for the entry `O=C(O)c1ccc2c(c1)[C@]1(CC[C@H](Oc3ccc(Cl)cc3Cl)CC1)C(=O)N2` : 99

Value of measured inhibition at 0.1 µM for the entry `COc1cc(Cl)ccc1O[C@H]1CC[C@@]2(CC1)C(=O)Nc1ccc(C(=O)O)cc12` : 98

Value of measured inhibition at 0.1 µM for the entry `COc1ccc(O[C@H]2CC[C@@]3(CC2)C(=O)Nc2ccc(C(=O)O)cc23)c(C#N)c1` : 99

Value of measured inhibition at 0.1 µM for the entry `O=C(O)c1ccc2c(c1)[C@]1(CC[C@@H](Oc3cc(F)ccc3Cl)CC1)C(=O)N2` : 93

[A] Cc1cc(Cl)cc(C)c1O[C@H]1CC[C@@]2(CC1)C(=O)Nc1ccc(C(=O)O)nc12
[B] O=C(O)c1ccc2c(n1)[C@]1(CC[C@H](Oc3c(F)cc(Cl)cc3F)CC1)C(=O)N2
Q: Could you point out whether the larger inhibition at 0.1 µM belongs to A or to B ? Your answer should be the label attached to the chosen record.
Result: A

[I] Cc1cc(C(F)(F)F)cnc1O[C@H]1CC[C@]2(CC1)C(=O)Nc1ccc(C(=O)O)nc12
[II] Cc1ccc(O[C@H]2CC[C@@]3(CC2)C(=O)Nc2ccc(C(=O)O)cc23)cn1
Q: // compare: I vs II , metric inhibition at 0.1 µM, want the smaller Your answer should be the label attached to the chosen record.
Result: II
